Ref: PubChem BioAssay (NCATS)

- Tested On: Catechol O-methyltransferase (Homo sapiens) (UniProt P21964)
- Sequence (P21964 whole entry, looked up): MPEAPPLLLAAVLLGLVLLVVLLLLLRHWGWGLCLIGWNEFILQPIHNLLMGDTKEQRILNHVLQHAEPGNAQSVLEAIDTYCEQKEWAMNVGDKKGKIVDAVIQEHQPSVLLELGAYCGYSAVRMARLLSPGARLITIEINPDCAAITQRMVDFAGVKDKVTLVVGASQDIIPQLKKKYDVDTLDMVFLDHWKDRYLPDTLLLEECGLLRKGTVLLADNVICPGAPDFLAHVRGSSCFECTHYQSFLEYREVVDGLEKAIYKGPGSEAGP
- Assay Method Text: Confirmatory Screen for Target Class Profiling of Small Molecule Inhibitors of Methyltransferases (AID 1745852)
- Assay Setup: MTase-Glo luminescence, SAH detection, recombinant enzyme, stronger effect = lower value; measured here: COMT max response unless noted
Recorded Endpoint: activity (%)
Enter your answer as a number in %; do not include the unit.

Ask: # input compound: CC(C)c1ccc2c(c1)c(SC(C)(C)C)c(CC(C)(C)C(=O)O)n2Cc1ccc(Cl)cc1 ; wanted: its activity
Result: -0.145

Ask: # input compound: N[C@@H](Cc1cc(I)c(Oc2cc(I)c(O)c(I)c2)c(I)c1)C(=O)O ; wanted: its activity
Result: -6.89

Ask: # input compound: Cc1ccc(Nc2nccc(N(C)c3ccc4c(C)n(C)nc4c3)n2)cc1S(N)(=O)=O ; wanted: its activity
Result: -4.72

Ask: # input compound: C[C@H](Cc1ccc(O)c(O)c1)[C@@H](C)Cc1ccc(O)c(O)c1 ; wanted: its activity
Result: 10.2

Ask: # input compound: CCN(CC)CCOc1ccc(Nc2ncc3cc(-c4c(Cl)cccc4Cl)c(=O)n(C)c3n2)cc1 ; wanted: its activity
Result: -14.1

---

- System: MKL-1
- Assay Method Text: qHTS assay to identify novel small-molecules to repurpose for Merkel cell carcinoma treatment (AID 1296009); further: nearly all actives have a fitted effect of over 60% in size
- Assay Setup: MCC and control cell lines, CellTiter-Glo viability, 72 h; series mostly up to 46 µM
- From the text: MCC is a rare and aggressive neuroendocrine skin cancer with limited treatment options. Approximately 80% of MCCs have the Merkel cell polyomavirus (MCPyV) DNA integrated into the host genome (virus-positive: VP-MCC) and viral oncogenes drive oncogenesis. The remaining MCCs are virus-negative (VN-MCC) and are caused by UV mutagenesis. […] Using cell viability as a readout (CellTiter-Glo assay) we found both overlapping and distinct drugs that can be repurposed for the treatment of VP-MCC and VN-MCC. […]
Inconclusive results are not listed. Activity calls are given as the source filed them. Calls come from the whole dose curve; as a rule, active = well fitted inhibition curve with a large enough effect; inconclusive = small, poorly fitted or top-dose-only effect; inactive = flat fitted curve, though single readings scatter.
Your response should consist of one outcome taken from YES for active, NO for inactive

Ask: Hi, sorry to bother you, what did the test record for Cc1ccc(S(=O)(=O)NC(=O)NN2CC3CCCC3C2)cc1 (stereo unspecified) ?
Result: NO

Ask: Hi, sorry to bother you, what did the test record for Nc1ccn([C@@H]2O[C@H](CO)[C@@H](O)C2O)c(=O)n1 (stereo partly specified) ?
Result: NO

Ask: Hi, sorry to bother you, what did the test record for Nc1nc(OCc2ccccc2)c2[nH]cnc2n1 ?
Result: NO

Ask: Hi, sorry to bother you, what did the test record for NS(=O)(=O)c1cc(C(=O)O)c(NCc2ccco2)cc1Cl ?
Result: NO

Ask: Hi, sorry to bother you, what did the test record for CC(C)(S)[C@@H](N)C(=O)O ?
Result: NO

Ask: Hi, sorry to bother you, what did the test record for O=C(O)CCNC(=O)c1ccc(N=Nc2ccc(O)c(C(=O)O)c2)cc1 ?
Result: NO

Ask: Hi, sorry to bother you, what did the test record for CC(S)C(=O)NCC(=O)O (stereo unspecified) ?
Result: NO

Ask: Hi, sorry to bother you, what did the test record for CCOC(=O)C1=C(O)C(=O)N(Cc2ccccc2)C1 ?
Result: NO

Ask: Hi, sorry to bother you, what did the test record for CC(C)[N+]1(C)[C@@H]2CC[C@H]1CC(OC(=O)C(CO)c1ccccc1)C2 (stereo partly specified) ?
Result: NO

Ask: Hi, sorry to bother you, what did the test record for CC1(C)CCC(C)(C)c2cc(NC(=O)c3ccc(C(=O)O)cc3)ccc21 ?
Result: NO

Ask: Hi, sorry to bother you, what did the test record for Cn1c(NCCN(CCO)CCCc2ccc([N+](=O)[O-])cc2)cc(=O)n(C)c1=O ?
Result: NO

Ask: Hi, sorry to bother you, what did the test record for CC1(C)C(=O)N(CCN2CCC(C(=O)c3ccc(F)cc3)CC2)c2ccccc21 ?
Result: NO

Ask: Hi, sorry to bother you, what did the test record for O=C(c1ccccc1)c1ccc2n1CCC2C(=O)O (stereo unspecified) ?
Result: NO

Ask: Hi, sorry to bother you, what did the test record for CC1=C(C(=O)O)N2C(=O)[C@@H](NC(=O)[C@H](N)C3=CCC=CC3)[C@H]2SC1 ?
Result: NO

Ask: Hi, sorry to bother you, what did the test record for CC(C)C[C@H](NC(=O)[C@H](Cc1ccccc1)NC(=O)c1cnccn1)B(O)O ?
Result: YES

Ask: Hi, sorry to bother you, what did the test record for CCN(CC)CCOc1ccc(Nc2ncc3cc(-c4c(Cl)cccc4Cl)c(=O)n(C)c3n2)cc1 ?
Result: YES

Ask: Hi, sorry to bother you, what did the test record for O=C(CCc1ccc(O)cc1)c1c(O)cc(O)cc1O ?
Result: YES

Ask: Hi, sorry to bother you, what did the test record for CC1(C)NC(=O)N(c2ccc([N+](=O)[O-])c(C(F)(F)F)c2)C1=O ?
Result: NO

Ask: Hi, sorry to bother you, what did the test record for COC(=O)N[C@H](C(=O)N[C@@H](Cc1ccccc1)[C@@H](O)CN(Cc1ccc(-c2ccccn2)cc1)NC(=O)[C@@H](NC(=O)OC)C(C)(C)C)C(C)(C)C ?
Result: NO

Ask: Hi, sorry to bother you, what did the test record for COc1c(O)cc2c(c1O)[C@@H]1O[C@H](CO)[C@@H](O)[C@H](O)[C@H]1OC2=O ?
Result: NO

Ask: Hi, sorry to bother you, what did the test record for Clc1ccc(C(Cn2ccnc2)OCc2ccc(Sc3ccccc3)cc2)c(Cl)c1 (stereo unspecified) ?
Result: NO
